- System: RXF 393 renal
- Protocol Summary: NCI tumour cell line growth inhibition, 48 h; in the data active = GI50 below about 0.43 µM; inactive = the rest
Give your call using only these classes: active, inactive

What did this assay record as the result for Cc1cc(C)c(-c2c(N)cc(Br)cc2Br)c(N)c1 ?
inactive

Now consider CC(=O)C1=C(O)C=C2Oc3c(C(=O)/C=C/c4cc(Cl)cc(Cl)c4)c(O)c(C)c(O)c3[C@]2(C)C1=O .
inactive

Proceed to COc1cc(OC)cc(-c2cc(=O)c3cc4c(cc3[nH]2)OCO4)c1
active

Similarly, CCCCCCCCCC[C@H](O)[C@H](O)CC[C@@H](O)[C@H]1CC[C@@H]([C@H]2CC[C@H](CCCCCCC[C@@H](O)CC3=C[C@H](C)OC3=O)O2)O1 ?
inactive

Can you check COc1cccc(Nc2nc3ccccc3c3occc23)c1 next?
inactive
